Below, each of the compounds is paired with its reported ED50 value.
Tested on: S. pyogenes
Experiment: In vivo protection against experimental bacterial infection in mice
Conditions: Streptococcus pyogenes, sc, two doses subcutaneously
Bridge positions count the residues as written; N and C are the ends. Square brackets hold non-standard residues; d marks the D form. Peptide text beside a SMILES is read from it. * marks the point of attachment. ξ: configuration not given here. Octatrienoyl(2E,4E,6E) = C/C=C/C=C/C=C/C(=O)*; Hexadienoyl(2E,4E) = C/C=C/C=C/C(=O)*; ξPro(4ξ-Me) = CC1CNC(C(=O)O)C1; X2 = CCC/C=C/C=C/C(=O)*; NMeA = CN[CH](C)C(=O)O; X1 = O=C(/C=C/C=C/CO)*

Examples from the recorded data:
compound	study-system	ED50
CC1CC2C(=O)N(C)C(C)C(=O)NC(C)C(=O)N3CCCC3C(=O)OCC(NC(=O)C(Cc3ccccc3)NC(=O)/C=C/C=C/CO)C(=O)N2C1 (stereo not drawn) [Factor H] (X1-FS[ξPro(4ξ-Me)][NMeA]AP; ester 2-C; configuration not given here)	S. pyogenes	9.9 mg/kg
C/C=C/C=C/C(=O)NC(Cc1ccccc1)C(=O)NC1COC(=O)C2CCCN2C(=O)C(C)NC(=O)C(C)N(C)C(=O)C2CCCN2C1=O (stereo not drawn) [Factor E] ({Hexadienoyl(2E,4E)}-FSP[NMeA]AP; ester 2-C; configuration not given here)	S. pyogenes	> 70 mg/kg
C/C=C/C=C/C(=O)NC(Cc1ccccc1)C(=O)NC1COC(=O)C2CCCN2C(=O)C(C)NC(=O)C(C)N(C)C(=O)C2CC(C)CN2C1=O (stereo not drawn) [Factor C] ({Hexadienoyl(2E,4E)}-FS[ξPro(4ξ-Me)][NMeA]AP; ester 2-C; configuration not given here)	S. pyogenes	11.1 mg/kg
CCC/C=C/C=C/C(=O)NC(Cc1ccccc1)C(=O)NC1COC(=O)C2CCCN2C(=O)C(C)NC(=O)C(C)N(C)C(=O)C2CC(C)CN2C1=O (stereo not drawn) [Factor D] (X2-FS[ξPro(4ξ-Me)][NMeA]AP; ester 2-C; configuration not given here)	S. pyogenes	> 70 mg/kg

Item C/C=C/C=C/C=C/C(=O)NC(Cc1ccccc1)C(=O)NC1COC(=O)C2CCCN2C(=O)C(C)NC(=O)C(C)N(C)C(=O)C2CCCN2C1=O (stereo not drawn) [Factor B] ({Octatrienoyl(2E,4E,6E)}-FSP[NMeA]AP; ester 2-C; configuration not given here) was tested on S. pyogenes; the reported ED50 is > 70 mg/kg

Item C/C=C/C=C/C=C/C(=O)NC(Cc1ccccc1)C(=O)NC1COC(=O)C2CCCN2C(=O)C(C)NC(=O)C(C)N(C)C(=O)C2CC(C)CN2C1=O (stereo not drawn) [Factor A] ({Octatrienoyl(2E,4E,6E)}-FS[ξPro(4ξ-Me)][NMeA]AP; ester 2-C; configuration not given here) was tested on S. pyogenes; the reported ED50 is > 70 mg/kg

###

Reported values: MIC for Bacteroides fragilis 1877, one per item.
Bridge positions count the residues as written; N and C are the ends. Square brackets hold non-standard residues; d marks the D form. Peptide text beside a SMILES is read from it. * marks the point of attachment. ξ: configuration not given here. Octatrienoyl(2E,4E,6E) = C/C=C/C=C/C=C/C(=O)*; Hexadienoyl(2E,4E) = C/C=C/C=C/C(=O)*; ξPro(4ξ-Me) = CC1CNC(C(=O)O)C1; X2 = CCC/C=C/C=C/C(=O)*; NMeA = CN[CH](C)C(=O)O; X1 = O=C(/C=C/C=C/CO)*

Examples from the recorded data:
compound	study-system	value-measured
C/C=C/C=C/C(=O)NC(Cc1ccccc1)C(=O)NC1COC(=O)C2CCCN2C(=O)C(C)NC(=O)C(C)N(C)C(=O)C2CC(C)CN2C1=O (stereo not drawn) [Factor C] ({Hexadienoyl(2E,4E)}-FS[ξPro(4ξ-Me)][NMeA]AP; ester 2-C; configuration not given here)	Bacteroides fragilis 1877	> 128 µg/mL
CCC/C=C/C=C/C(=O)NC(Cc1ccccc1)C(=O)NC1COC(=O)C2CCCN2C(=O)C(C)NC(=O)C(C)N(C)C(=O)C2CC(C)CN2C1=O (stereo not drawn) [Factor D] (X2-FS[ξPro(4ξ-Me)][NMeA]AP; ester 2-C; configuration not given here)	Bacteroides fragilis 1877	> 128 µg/mL
C/C=C/C=C/C(=O)NC(Cc1ccccc1)C(=O)NC1COC(=O)C2CCCN2C(=O)C(C)NC(=O)C(C)N(C)C(=O)C2CCCN2C1=O (stereo not drawn) [Factor E] ({Hexadienoyl(2E,4E)}-FSP[NMeA]AP; ester 2-C; configuration not given here)	Bacteroides fragilis 1877	> 128 µg/mL
C/C=C/C=C/C=C/C(=O)NC(Cc1ccccc1)C(=O)NC1COC(=O)C2CCCN2C(=O)C(C)NC(=O)C(C)N(C)C(=O)C2CCCN2C1=O (stereo not drawn) [Factor B] ({Octatrienoyl(2E,4E,6E)}-FSP[NMeA]AP; ester 2-C; configuration not given here)	Bacteroides fragilis 1877	> 128 µg/mL
CC1CC2C(=O)N(C)C(C)C(=O)NC(C)C(=O)N3CCCC3C(=O)OCC(NC(=O)C(Cc3ccccc3)NC(=O)/C=C/C=C/CO)C(=O)N2C1 (stereo not drawn) [Factor H] (X1-FS[ξPro(4ξ-Me)][NMeA]AP; ester 2-C; configuration not given here)	Bacteroides fragilis 1877	> 128 µg/mL

Item C/C=C/C=C/C=C/C(=O)NC(Cc1ccccc1)C(=O)NC1COC(=O)C2CCCN2C(=O)C(C)NC(=O)C(C)N(C)C(=O)C2CC(C)CN2C1=O (stereo not drawn) [Factor A] ({Octatrienoyl(2E,4E,6E)}-FS[ξPro(4ξ-Me)][NMeA]AP; ester 2-C; configuration not given here) was tested on Bacteroides fragilis 1877; the reported MIC is > 128 µg/mL
